Reported pEC50 values for a set of compounds
- Experimental System: Gal4 DNA binding domain fused to the LBD of LXRα in HEK293 cells (Homo sapiens (Human), UniProt Q13133)
- Sequence (Q13133 209-447): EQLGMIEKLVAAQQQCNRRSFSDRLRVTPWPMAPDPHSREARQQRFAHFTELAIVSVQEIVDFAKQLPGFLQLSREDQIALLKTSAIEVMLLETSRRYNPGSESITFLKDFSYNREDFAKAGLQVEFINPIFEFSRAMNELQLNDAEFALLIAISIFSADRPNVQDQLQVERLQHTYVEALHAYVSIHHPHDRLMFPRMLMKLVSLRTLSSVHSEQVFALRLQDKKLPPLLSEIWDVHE
- Assay Text: LXR luciferase transcriptional reporter gene assay, agonist mode, LXRα
- Type: cell-based
- Experimental Conditions: agonist mode; read-out: Cell LXRα EC50
pEC50: −log10 of the molar value.

# pEC50 of `CC(C)[C@@H]1CN(c2cccc(S(C)(=O)=O)c2)CCN1c1ncccn1` = < 4.70

# pEC50 of Cc1ccccc1[C@@H]1CN(c2cccc(S(C)(=O)=O)c2)CCN1Cc1ccc(C(F)(F)F)nc1 (single isomer, unassigned) = < 4.70

# pEC50 of CS(=O)(=O)c1cccc(N2CCN(Cc3ccccc3)C(c3ccccc3)C2)c1 (centres unmarked) = < 4.70

# pEC50 of `CC(C)[C@@H]1CN(c2ccc(F)c(S(C)(=O)=O)c2)CCN1c1ncc(C(=O)NC2CN(C(=O)OC(C)(C)C)C2)c(C(F)(F)F)n1` = < 4.70

# pEC50 of CS(=O)(=O)c1cccc(N2CCN(Cc3cccc(C(F)(F)F)c3)C(c3ccccc3)C2)c1 (centres unmarked) = < 4.70

# pEC50 of CS(=O)(=O)c1cccc(N2CCN(C[C@@H]3CCC[C@@H](C(F)(F)F)C3)[C@@H](c3ccc(F)cc3)C2)c1 (single isomer, unassigned) = < 4.70

# pEC50 of `CC(C)[C@@H]1CN(c2ccc(F)c(S(C)(=O)=O)c2)CCN1c1ncc(C(=O)N(C)CCCO)c(C(F)(F)F)n1` = < 4.70

# pEC50 of `CCOC(=O)CN(C)C(=O)c1cnc(N2CCN(c3ccc(F)c(S(C)(=O)=O)c3)C[C@H]2C(C)C)nc1C(F)(F)F` = < 4.70
